- MEASUREMENT DESCRIPTION: Tissue distribution study in rabbits after oral Panax notoginseng extract with or without Borneol
- Type: in vivo, New Zealand rabbits
- CONDITION DESCRIPTION: New Zealand, rabbit, plasma, po, 3 mL·kg^−1, 1.0 h, oral Panax notoginseng, read-out: Concentration in plasma
REPORTED PROPERTY: concentration at 1 h

MOLECULE | concentration at 1 h
CC(C)=CCC[C@](C)(O[C@@H]1O[C@H](CO)[C@@H](O)[C@H](O)[C@H]1O)[C@H]1CC[C@]2(C)[C@@H]1[C@H](O)C[C@@H]1[C@@]3(C)CC[C@H](O)C(C)(C)[C@@H]3[C@@H](O[C@@H]3O[C@H](CO)[C@@H](O)[C@H](O)[C@H]3O[C@@H]3O[C@@H](C)[C@H](O)[C@@H](O)[C@H]3O)C[C@]12C [GRe, ginsenoside Re] | 1900 ng/mL

Kindly consider the entry below.
Entry under test: CC(C)=CCC[C@](C)(O[C@@H]1O[C@H](CO)[C@@H](O)[C@H](O)[C@H]1O)[C@H]1CC[C@]2(C)[C@@H]1[C@H](O)C[C@@H]1[C@@]3(C)CC[C@H](O)C(C)(C)[C@@H]3[C@@H](O[C@@H]3O[C@H](CO)[C@@H](O)[C@H](O)[C@H]3O)C[C@]12C [GRg1, ginsenoside Rg1] . Its concentration at 1 h was 1990 ng/mL

----------
Readings of Papp B→A at 120 min, 500 μM for the listed compounds
- MEASUREMENT DESCRIPTION: Transport studies across Caco-2 monolayers (P app, efflux ratio)
- Assay type: in vitro ADME
- CONDITION DESCRIPTION: human; Caco-2 Model, 500 μM compound, with or without 200 μM Borneol (see label); read-out: P app (basolateral to apical)
- Description: Medium was replaced every 2-3 days. […] The vinblastine-selected Caco-2 cells were cultivated in the presence of 10 nM vinblastine to induce P-glycoprotein (P-gp) expression. […] Prior to the transport study, cytotoxicity of NGR1, GRg1, GRe, and Borneol toward Caco-2 cells was determined using MTT assays. […] The efflux ratio (Er) was calculated using the following equation: (2) Er=Papp(basolateral-apical)/Papp(apical-basolateral).
The reply must contain the numeric value and, after it, the unit.

COMPOUND | Papp B→A at 120 min, 500 μM
CC(C)=CCC[C@](C)(O[C@@H]1O[C@H](CO)[C@@H](O)[C@H](O)[C@H]1O)[C@H]1CC[C@]2(C)[C@@H]1[C@H](O)C[C@@H]1[C@@]3(C)CC[C@H](O)C(C)(C)[C@@H]3[C@@H](O[C@@H]3O[C@H](CO)[C@@H](O)[C@H](O)[C@H]3O[C@@H]3O[C@@H](C)[C@H](O)[C@@H](O)[C@H]3O)C[C@]12C [GRe, ginsenoside Re] | 0.573 ×10⁻⁶ cm/s

Entry under test: CC(C)=CCC[C@](C)(O[C@@H]1O[C@H](CO)[C@@H](O)[C@H](O)[C@H]1O)[C@H]1CC[C@]2(C)[C@@H]1[C@H](O)C[C@@H]1[C@@]3(C)CC[C@H](O)C(C)(C)[C@@H]3[C@@H](O[C@@H]3O[C@H](CO)[C@@H](O)[C@H](O)[C@H]3O)C[C@]12C [GRg1, ginsenoside Rg1] . Its Papp B→A at 120 min, 500 μM was 0.364 ×10⁻⁶ cm/s

----------
- MEASUREMENT DESCRIPTION: Tissue distribution study in rabbits after oral Panax notoginseng extract with or without Borneol
- Type: in vivo, New Zealand rabbits
- CONDITION DESCRIPTION: New Zealand, rabbit, liver, po, 3 mL·kg^−1, 3.0 h, oral Panax notoginseng with Borneol, read-out: Concentration in liver
REPORTED PROPERTY: concentration at 3 h (ng/g)
Kindly answer with a numeric value in ng/g, unit omitted.

COMPOUND | UNIT ABBREV | OBSERVED RESULT
CC(C)=CCC[C@](C)(O[C@@H]1O[C@H](CO)[C@@H](O)[C@H](O)[C@H]1O)[C@H]1CC[C@]2(C)[C@@H]1[C@H](O)C[C@@H]1[C@@]3(C)CC[C@H](O)C(C)(C)[C@@H]3[C@@H](O[C@@H]3O[C@H](CO)[C@@H](O)[C@H](O)[C@H]3O[C@@H]3O[C@@H](C)[C@H](O)[C@@H](O)[C@H]3O)C[C@]12C [GRe, ginsenoside Re] | ng/g | 2630

Kindly consider the entry below.
Entry under test: CC(C)=CCC[C@](C)(O[C@@H]1O[C@H](CO)[C@@H](O)[C@H](O)[C@H]1O)[C@H]1CC[C@]2(C)[C@@H]1[C@H](O)C[C@@H]1[C@@]3(C)CC[C@H](O)C(C)(C)[C@@H]3[C@@H](O[C@@H]3O[C@H](CO)[C@@H](O)[C@H](O)[C@H]3O)C[C@]12C [GRg1, ginsenoside Rg1] . Its concentration at 3 h was 37800

----------
Readings of AUC(0-inf) for the listed compounds
- MEASUREMENT DESCRIPTION: Pharmacokinetics study in rabbits after oral Panax notoginseng extract with or without Borneol (plasma, SPE-HPLC-MS)
- Type: in vivo, New Zealand rabbits
- CONDITION DESCRIPTION: New Zealand, rabbit, plasma, po, oral 3.0 mL·kg^−1 Panax notoginseng extract
Kindly answer with a numeric value in ng·h/mL, unit omitted.

COMPOUND | AUC(0-inf) / ng·h/mL
CC(C)=CCC[C@](C)(O[C@@H]1O[C@H](CO)[C@@H](O)[C@H](O)[C@H]1O)[C@H]1CC[C@]2(C)[C@@H]1[C@H](O)C[C@@H]1[C@@]3(C)CC[C@H](O)C(C)(C)[C@@H]3[C@@H](O[C@@H]3O[C@H](CO)[C@@H](O)[C@H](O)[C@H]3O)C[C@]12C [GRg1, ginsenoside Rg1] | 10900

Kindly consider the entry below.
Entry under test: CC(C)=CCC[C@](C)(O[C@@H]1O[C@H](CO)[C@@H](O)[C@H](O)[C@H]1O)[C@H]1CC[C@]2(C)[C@@H]1[C@H](O)C[C@@H]1[C@@]3(C)CC[C@H](O)C(C)(C)[C@@H]3[C@@H](O[C@@H]3O[C@H](CO)[C@@H](O)[C@H](O)[C@H]3O[C@@H]3O[C@@H](C)[C@H](O)[C@@H](O)[C@H]3O)C[C@]12C [GRe, ginsenoside Re] . Its AUC(0-inf) was 8910

----------
- MEASUREMENT DESCRIPTION: Tissue distribution study in rabbits after oral Panax notoginseng extract with or without Borneol
- Type: in vivo, New Zealand rabbits
- CONDITION DESCRIPTION: New Zealand, rabbit, lung, po, 1.0 h, oral Panax notoginseng with Borneol, read-out: Concentration in lung
Readings of concentration at 1 h for the listed compounds
Kindly answer with a numeric value in ng/g, unit omitted.

COMPOUND | concentration at 1 h [ng/g]
CC(C)=CCC[C@](C)(O[C@@H]1O[C@H](CO)[C@@H](O)[C@H](O)[C@H]1O)[C@H]1CC[C@]2(C)[C@@H]1[C@H](O)C[C@@H]1[C@@]3(C)CC[C@H](O)C(C)(C)[C@@H]3[C@@H](O[C@@H]3O[C@H](CO)[C@@H](O)[C@H](O)[C@H]3O[C@@H]3O[C@@H](C)[C@H](O)[C@@H](O)[C@H]3O)C[C@]12C [GRe, ginsenoside Re] | 2990

Kindly consider the entry below.
Entry under test: CC(C)=CCC[C@](C)(O[C@@H]1O[C@H](CO)[C@@H](O)[C@H](O)[C@H]1O)[C@H]1CC[C@]2(C)[C@@H]1[C@H](O)C[C@@H]1[C@@]3(C)CC[C@H](O)C(C)(C)[C@@H]3[C@@H](O[C@@H]3O[C@H](CO)[C@@H](O)[C@H](O)[C@H]3O)C[C@]12C [GRg1, ginsenoside Rg1] . Its concentration at 1 h was 17800

----------
Readings of concentration at 1 h for the listed compounds
- MEASUREMENT DESCRIPTION: Tissue distribution study in rabbits after oral Panax notoginseng extract with or without Borneol
- Type: in vivo, New Zealand rabbits
- CONDITION DESCRIPTION: New Zealand, rabbit, liver, po, 3 mL·kg^−1, 1.0 h, oral Panax notoginseng, read-out: Concentration in liver
Kindly answer with a numeric value in ng/g, unit omitted.

COMPOUND | concentration at 1 h, ng/g
CC(C)=CCC[C@](C)(O[C@@H]1O[C@H](CO)[C@@H](O)[C@H](O)[C@H]1O)[C@H]1CC[C@]2(C)[C@@H]1[C@H](O)C[C@@H]1[C@@]3(C)CC[C@H](O)C(C)(C)[C@@H]3[C@@H](O[C@@H]3O[C@H](CO)[C@@H](O)[C@H](O)[C@H]3O[C@@H]3O[C@@H](C)[C@H](O)[C@@H](O)[C@H]3O)C[C@]12C [GRe, ginsenoside Re] | 1300

Kindly consider the entry below.
Entry under test: CC(C)=CCC[C@](C)(O[C@@H]1O[C@H](CO)[C@@H](O)[C@H](O)[C@H]1O)[C@H]1CC[C@]2(C)[C@@H]1[C@H](O)C[C@@H]1[C@@]3(C)CC[C@H](O)C(C)(C)[C@@H]3[C@@H](O[C@@H]3O[C@H](CO)[C@@H](O)[C@H](O)[C@H]3O)C[C@]12C [GRg1, ginsenoside Rg1] . Its concentration at 1 h was 8850
